- assay-method-text: Cytotoxicity against human MT4 cells by MTT assay
- Type: cell-based

>  <compound>
COc1ccc(CCSc2nc(Cc3c(Cl)cccc3Cl)c(C)c(=O)[nH]2)cc1

>  <CC50>
> 57 µM

$$$$
>  <compound>
Cc1c(Cc2c(Cl)cccc2Cl)nc(SCC(=O)c2ccc(F)cc2)[nH]c1=O

>  <CC50>
> 57 µM

$$$$
>  <compound>
Cc1c(Cc2c(F)cccc2Cl)nc(SCC(=O)c2ccccc2)[nH]c1=O

>  <CC50>
> 12 µM

$$$$
>  <compound>
O=C1Nc2ccc(Cl)cc2[C@@](C#CC2CC2)(C(F)(F)F)O1

>  <CC50>
> 3 µM

$$$$
>  <compound>
O=c1cc(Cc2c(F)cccc2F)nc(SCCCc2ccccc2)[nH]1

>  <CC50>
32 µM

$$$$
>  <compound>
COc1ccc(C(=O)CSc2nc(Cc3c(F)cccc3Cl)c(C)c(=O)[nH]2)cc1

>  <CC50>
> 12 µM

$$$$
>  <compound>
Cc1c(Cc2c(F)cccc2F)nc(SCc2cccnc2)[nH]c1=O

>  <CC50>
> 70 µM

$$$$
>  <compound>
Cc1ccnc2c1NC(=O)c1cccnc1N2C1CC1

>  <CC50>
> 7 µM

$$$$
>  <compound>
CCc1c(Cc2c(F)cccc2Cl)nc(SCC(=O)c2ccc(F)cc2)[nH]c1=O

>  <CC50>
> 57 µM

$$$$
>  <compound>
O=C(CSc1nc(Cc2c(F)cccc2Cl)cc(=O)[nH]1)c1ccccc1

>  <CC50>
> 13 µM

$$$$
>  <compound>
CCC(C)c1c(Cc2c(F)cccc2Cl)nc(SCC(=O)c2ccc(F)cc2)[nH]c1=O (stereo not given)

>  <CC50>
> 54 µM

$$$$
>  <compound>
CC(C)c1c(Cc2c(F)cccc2Cl)nc(SCC(=O)c2ccccc2)[nH]c1=O

>  <CC50>
> 12 µM

$$$$
>  <compound>
Cc1c(Cc2c(F)cccc2F)nc(SCc2ccccc2)[nH]c1=O

>  <CC50>
> 70 µM

$$$$
>  <compound>
CC(C)c1c(Cc2c(F)cccc2Cl)nc(SCC(=O)c2ccc(F)cc2)[nH]c1=O

>  <CC50>
> 56 µM

$$$$
>  <compound>
COc1ccc(C(=O)CSc2nc(Cc3c(Cl)cccc3Cl)cc(=O)[nH]2)cc1

>  <CC50>
> 11 µM

$$$$
>  <compound>
Cc1c(Cc2c(F)cccc2Cl)nc(SCC(=O)c2ccc(F)cc2)[nH]c1=O

>  <CC50>
> 59 µM

$$$$
>  <compound>
CCc1c(Cc2c(F)cccc2F)nc(SCC(=O)c2ccccc2)[nH]c1=O

>  <CC50>
56 µM

$$$$
>  <compound>
CCc1c(Cc2c(Cl)cccc2Cl)nc(SCC(=O)c2ccc(F)cc2)[nH]c1=O

>  <CC50>
> 55 µM

$$$$
>  <compound>
CCC(C)c1c(Cc2c(F)cccc2Cl)nc(SCC(=O)c2ccc(OC)cc2)[nH]c1=O (stereo not given)

>  <CC50>
40 µM

$$$$
>  <compound>
Cc1c(Cc2c(F)cccc2F)nc(SCc2ccccn2)[nH]c1=O

>  <CC50>
> 70 µM

$$$$
